Each record here notes measured Cell viability (% of control) 500 μM.
# Tested on: endothelial cells (human endothelial-like cells, Eahy926)
# RUN_DESCRIPTION: MTT cell viability of endothelial cells (ECs)
# Assay type: cell-based
# SETUP_CONDITIONS: 500 μM
EXPERIMENTAL_READOUT: Cell viability (% of control) 500 μM

{"MOLECULE": "COc1cc(O)c(C(=O)O[C@@H]2C[C@]3(C)C4[C@@H](O)C(C)(C)C[C@@]4(O)C=C(C=O)[C@]23O)c(C)c1Cl (stereo partly drawn)", "READOUT_VALUE": "7.4 % of control"}
{"MOLECULE": "COc1cc(O)c(C(=O)O[C@@H]2C[C@]3(C)C4CC(C)(C)CC4C=C(C=O)[C@]23O)c(C)c1Cl (stereo partly drawn)", "READOUT_VALUE": "7.0 % of control"}
{"MOLECULE": "Cc1c(Cl)c(O)cc(O)c1C(=O)O[C@@H]1C[C@]2(C)C3CC(C)(C)CC3C=C(CO)[C@]12O (stereo partly drawn)", "READOUT_VALUE": "8.8 % of control"}
{"MOLECULE": "Cc1c(Cl)c(O)cc(O)c1C(=O)O[C@@H]1C[C@]2(C)[C@H]3CC(C)(C)C[C@@]3(O)C=C(C=O)[C@]12O", "READOUT_VALUE": "7.6 % of control"}
{"MOLECULE": "Cc1c(Cl)c(O)cc(O)c1C(=O)O[C@@H]1C[C@]2(C)C3[C@@H](O)C(C)(C)C[C@@]3(O)C=C(C=O)[C@]12O (stereo partly drawn)", "READOUT_VALUE": "74.1 % of control"}
{"MOLECULE": "COc1cc(O)c(C(=O)O[C@@H]2C[C@@]3(C)C2=C(C=O)C=C2CC(C)(C)C[C@@H]23)c(C)c1Cl", "READOUT_VALUE": "7.9 % of control"}
{"MOLECULE": "Cc1cc(O)cc(O)c1C(=O)O[C@@H]1C[C@]2(C)C3CC(C)(C)CC3C=C(CO)[C@]12O (stereo partly drawn)", "READOUT_VALUE": "9.8 % of control"}
{"MOLECULE": "Cc1c(Cl)c(O)cc(O)c1C(=O)OCC1=C[C@@H]2CC(C)(C)C[C@@H]2[C@@]2(C)C[C@@H](O)[C@@]12O", "READOUT_VALUE": "7.0 % of control"}
{"MOLECULE": "COc1cc(O)c(C(=O)O[C@@H]2C[C@]3(C)C4C(C=C(C=O)[C@]23O)CC(C)(C)[C@@H]4O)c(C)c1Cl (stereo partly drawn)", "READOUT_VALUE": "9.6 % of control"}
